Where these numbers come from: patent US20260250262A1

TARGET: Recombinant NAMPT protein (Homo sapiens)
Sequence (P43490 whole entry): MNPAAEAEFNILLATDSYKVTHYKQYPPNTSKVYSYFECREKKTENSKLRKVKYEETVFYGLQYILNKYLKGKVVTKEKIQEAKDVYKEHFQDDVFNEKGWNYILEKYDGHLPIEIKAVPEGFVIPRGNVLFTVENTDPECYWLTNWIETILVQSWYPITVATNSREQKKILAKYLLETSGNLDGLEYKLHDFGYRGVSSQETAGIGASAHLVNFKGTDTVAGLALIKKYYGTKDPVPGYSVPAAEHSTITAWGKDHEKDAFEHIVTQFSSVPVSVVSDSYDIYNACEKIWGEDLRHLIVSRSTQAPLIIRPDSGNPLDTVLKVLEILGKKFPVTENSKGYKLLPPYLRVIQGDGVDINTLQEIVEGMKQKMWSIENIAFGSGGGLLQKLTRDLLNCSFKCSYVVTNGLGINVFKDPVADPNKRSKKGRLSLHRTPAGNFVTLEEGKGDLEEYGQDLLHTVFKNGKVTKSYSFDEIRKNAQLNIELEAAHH
ASSAY NOTES: NAMPT enzyme inhibition assay (BPS Bioscience NAMPT Inhibitor Screening Assay Kit)
PARTICULARS: 30 min pre-incubation, 2 h at 30° C., fluorescence
pIC50: −log10 of the molar value.
MEASUREMENT LABEL: pIC50

Query: // query pIC50 value for entry `Cc1nc2cc(-c3ccc(NC(=O)NCCc4cccnc4)cc3C#Cc3ccc(F)cc3)ccc2c(=O)n1CCN`
Response: > 6.30

Query: Also `O=C(NCCc1cccnc1)Nc1ccc(-c2ccncc2)c(C#Cc2ccc(C(=O)NC3CCNCC3)cc2)c1` , if possible.
Response: > 6.30

Query: Also `CC(=O)Nc1ccc(C#Cc2cc(NC(=O)NCCc3cccnc3)ccc2-c2ccncc2)cc1` , if possible.
Response: > 6.30

Query: Also `O=C(NCCCc1cn[nH]c1)Nc1ccc(-c2ccncc2)c(C#Cc2ccc(F)cc2)c1` , if possible.
Response: > 6.30

Query: Also `O=C(NCCc1cccnc1)Nc1ccc(-c2ccc3cnccc3c2)c(C#Cc2ccc(F)cc2)c1` , if possible.
Response: > 6.30

Query: Also `O=C(NCCc1cccnc1)Nc1ccc(-c2cccc(N3CCOCC3)c2)c(C#Cc2ccc(F)cc2)c1` , if possible.
Response: 6.00 to 6.30

Query: Also `O=C(NCCc1ccc([N+](=O)[O-])nc1)Nc1ccc(-c2ccncc2)c(C#Cc2ccc(F)cc2)c1` , if possible.
Response: < 6.00

Query: Also `Nc1ccc(CCNC(=O)Nc2ccc(-c3ccncc3)c(C#Cc3ccc(F)cc3)c2)cn1` , if possible.
Response: < 6.00

Query: Also NC1CCCN(CCNC(=O)c2ccc(C#Cc3cc(NC(=O)NCCc4cccnc4)ccc3-c3ccncc3)cc2)C1 (stereo not drawn) , if possible.
Response: > 6.30

Query: Also `O=C(NCCn1ccnc1[N+](=O)[O-])Nc1ccc(-c2ccncc2)c(C#Cc2ccc(F)cc2)c1` , if possible.
Response: < 6.00

Query: Also `O=C(NCCc1cccnc1)Nc1ccc(CC(=O)N2CCCCC2)c(C#Cc2ccc(F)cc2)c1` , if possible.
Response: > 6.30

Query: Also `O=C(NCCc1cccnc1)Nc1ccc(-c2ccncc2)c(C#Cc2ccc(C(=O)NCCN3CCNCC3)cc2)c1` , if possible.
Response: > 6.30

Query: Also `O=C(NCc1cc2cnccc2[nH]1)Nc1ccc(-c2ccncc2)c(C#Cc2ccc(F)cc2)c1` , if possible.
Response: > 6.30

Query: Also `O=C(NCc1ccn2ccnc2c1)Nc1ccc(-c2ccc(N3CCNCC3)cc2)c(C#Cc2ccc(F)cc2)c1` , if possible.
Response: 6.00 to 6.30

Query: Also `Nc1cccc(C(=O)Nc2ccc(NC(=O)NCCc3cccnc3)cc2C#Cc2ccc(F)cc2)c1` , if possible.
Response: > 6.30
